Measured pIC50 of individual entries
Biological target: UniProt P56817
Sequence (P56817 46-501, species assumed): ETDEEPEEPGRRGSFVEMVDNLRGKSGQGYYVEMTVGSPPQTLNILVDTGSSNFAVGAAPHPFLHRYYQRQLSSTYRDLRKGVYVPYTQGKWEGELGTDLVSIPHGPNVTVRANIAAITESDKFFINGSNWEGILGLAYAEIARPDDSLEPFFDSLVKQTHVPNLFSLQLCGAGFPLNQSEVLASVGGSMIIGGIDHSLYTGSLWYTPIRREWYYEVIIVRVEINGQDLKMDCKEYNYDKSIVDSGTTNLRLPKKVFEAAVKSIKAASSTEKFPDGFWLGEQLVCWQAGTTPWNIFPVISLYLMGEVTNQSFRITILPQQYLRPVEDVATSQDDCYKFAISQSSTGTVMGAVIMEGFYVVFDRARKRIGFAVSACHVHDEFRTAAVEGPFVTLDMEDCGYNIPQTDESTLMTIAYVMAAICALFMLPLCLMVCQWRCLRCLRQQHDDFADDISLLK
Experiment: In vitro enzymatic BACE FRET assay
Type: biochemical
Settings: average IC50; read-out: BACE1 Enzyme assay IC50
pIC50: −log10 of the molar value.
Test readout: pIC50

                                smiles_text       tested_on  measured
0  COc1cnc2c(Nc3ccc(F)c([C@@]4(C)N=C(N)[C@@]5(CF)CC[C@@H]4S5(=O)=O)c3)ncc(F)c2c1  UniProt P56817      8.22
1  CCCOc1cnc2c(Nc3ccc(F)c([C@@]4(C)N=C(N)[C@@]5(C)CC[C@@H]4S5(=O)=O)c3)nccc2n1  UniProt P56817      8.40
2  COc1cnc(C(=O)Nc2ccc(F)c([C@@]3(C)N=C(N)[C@@]4(CF)CC[C@@H]3S4(=O)=O)c2)c(C)n1  UniProt P56817      8.00
3  Cc1cnc(COc2cnc3c(Nc4ccc(F)c([C@@]5(C)N=C(N)[C@@]6(C)CC[C@@H]5S6(=O)=O)c4)nccc3n2)o1  UniProt P56817      9.00
4  C[C@]1(c2cc(NC(=O)c3ncc(C(F)(F)F)cc3Cl)ccc2F)N=C(N)[C@@]2(CF)CC[C@@H]1S2(=O)=O  UniProt P56817      8.10
5  C#CCOc1cnc(C(=O)Nc2ccc(F)c([C@@]3(C)N=C(N)[C@@]4(CF)CC[C@@H]3S4(=O)=O)c2)c(Cl)c1  UniProt P56817      9.00
6  C[C@]1(c2cc(NC(=O)c3ccc(C#N)cc3F)ccc2F)N=C(N)[C@@]2(C)CC[C@@H]1S2(=O)=O  UniProt P56817      7.25

----------
Measured IC50 of individual entries
Biological target: Cathepsin D (Cat D) (Homo sapiens, UniProt P07339)
Construct: made in house; host or cells: CHO cells
Sequence (P07339 65-412, species assumed): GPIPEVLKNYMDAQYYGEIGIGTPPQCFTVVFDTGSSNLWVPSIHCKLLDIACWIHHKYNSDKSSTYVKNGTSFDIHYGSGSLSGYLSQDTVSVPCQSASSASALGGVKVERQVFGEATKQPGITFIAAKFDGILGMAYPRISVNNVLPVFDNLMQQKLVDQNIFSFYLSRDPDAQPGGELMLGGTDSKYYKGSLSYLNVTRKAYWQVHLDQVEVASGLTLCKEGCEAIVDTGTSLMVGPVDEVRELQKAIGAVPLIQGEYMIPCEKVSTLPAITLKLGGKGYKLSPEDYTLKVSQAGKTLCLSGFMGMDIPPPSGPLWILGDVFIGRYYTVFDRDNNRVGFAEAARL
Test: In vitro enzymatic Cathepsin D (Cat D) FRET assay
Type: biochemical
Details: read-out: CatD IC50
Test readout: IC50 (µM)

>>> df
                                    compound                                 tested_on  test_readout  reported_relation  measured
 0  Cc1cc(Cl)cnc1C(=O)Nc1ccc(F)c([C@@]2(C)N=C(N)[C@]3(C)CCC[C@@]2(C)S3(=O)=O)c1 [Example 12]  Cathepsin D (Cat D) (Homo sapiens, UniProt P07339)          IC50                  =      29.7
 1  COc1cnc(C(=O)Nc2ccc(F)c([C@@]3(C)N=C(N)[C@]4(C)CCC[C@@]3(C)S4(=O)=O)c2)cn1 [Example 16]  Cathepsin D (Cat D) (Homo sapiens, UniProt P07339)          IC50                  =      85.2
 2  Cc1cc(C(F)(F)F)cnc1C(=O)Nc1ccc(F)c([C@@]2(C)N=C(N)[C@@]3(C)CC[C@@H]2S3(=O)=O)c1 [Example 24]  Cathepsin D (Cat D) (Homo sapiens, UniProt P07339)          IC50                  =       591
 3  Cc1cc(Cl)cnc1C(=O)Nc1ccc(F)c([C@@]2(C)N=C(N)[C@]3(C)CCC[C@H]2S3(=O)=O)c1 [Example 4]  Cathepsin D (Cat D) (Homo sapiens, UniProt P07339)          IC50                  =       270
 4  C[C@]1(c2cc(N)ccc2F)N=C(N)[C@@]2(C)CC[C@@H]1S2(=O)=O [Example 35]  Cathepsin D (Cat D) (Homo sapiens, UniProt P07339)          IC50                  =       287
 5  Cc1cc(OC(F)F)cnc1C(=O)Nc1ccc(F)c([C@@]2(C)N=C(N)[C@@]3(C)CCC[C@]2(C)S3(=O)=O)c1 [Example 13]  Cathepsin D (Cat D) (Homo sapiens, UniProt P07339)          IC50                  =      8.64
 6  Cc1cc(OC(F)F)cnc1C(=O)Nc1ccc(F)c([C@@]2(C)N=C(N)[C@]3(C)CCC[C@H]2S3(=O)=O)c1 [Example 6]  Cathepsin D (Cat D) (Homo sapiens, UniProt P07339)          IC50                  =       215
 7  Cc1cc(Cl)cnc1C(=O)Nc1ccc(F)c([C@@]2(C)N=C(N)[C@@H]3CCC[C@H]2S3(=O)=O)c1 [Example 17]  Cathepsin D (Cat D) (Homo sapiens, UniProt P07339)          IC50                  =      2780
 8  Cc1cc(Cl)cnc1C(=O)Nc1ccc(F)c([C@@]2(C)N=C(N)[C@H]3CC[C@@H]2S3(=O)=O)c1 [Example 33]  Cathepsin D (Cat D) (Homo sapiens, UniProt P07339)          IC50                  =      1540
 9  Cc1cc(OC(F)F)cnc1C(=O)Nc1ccc(F)c([C@@]2(C)N=C(N)[C@@]3(C)CCC[C@]2(F)S3(=O)=O)c1 [Example 9]  Cathepsin D (Cat D) (Homo sapiens, UniProt P07339)          IC50                  =        19
10  C[C@]12CC[C@H]([C@@](C)(c3cc(Nc4ncc(F)c5cc(Cl)cnc45)ccc3F)N=C1N)S2(=O)=O [Example 30]  Cathepsin D (Cat D) (Homo sapiens, UniProt P07339)          IC50                  =      4500
11  COc1cnc2c(Nc3ccc(F)c([C@@]4(C)N=C(N)[C@@]5(C)CC[C@@H]4S5(=O)=O)c3)ncc(F)c2c1 [Example 36]  Cathepsin D (Cat D) (Homo sapiens, UniProt P07339)          IC50                  =      5490
12  Cc1c(C(=O)Nc2ccc(F)c([C@@]3(C)N=C(N)[C@]4(C)CC[C@H]3S4(=O)=O)c2)nc2ccc(Cl)cn12 [Example 28]  Cathepsin D (Cat D) (Homo sapiens, UniProt P07339)          IC50                  >       400
13  Cc1cc(OC(F)F)cnc1C(=O)Nc1ccc(F)c([C@@]2(C)N=C(N)[C@@]3(C)CCC[C@@H]2S3(=O)=O)c1 [Example 5]  Cathepsin D (Cat D) (Homo sapiens, UniProt P07339)          IC50                  =       105
14  COc1cnc2c(Nc3ccc(F)c([C@@]4(C)N=C(N)[C@@]5(C)CCC[C@@H]4S5(=O)=O)c3)nccc2n1 [Example 1]  Cathepsin D (Cat D) (Homo sapiens, UniProt P07339)          IC50                  =      45.8
15  Cc1cc(Cl)cnc1C(=O)Nc1ccc(F)c([C@@]2(C)N=C(N)[C@@]3(C)CC[C@]2(C)S3(=O)=O)c1 [Example 31]  Cathepsin D (Cat D) (Homo sapiens, UniProt P07339)          IC50                  =      56.9
16  Cc1cc(OC(F)F)cnc1C(=O)Nc1ccc(F)c([C@@]2(C)N=C(N)[C@]3(C)CCC[C@@]2(C)S3(=O)=O)c1 [Example 14]  Cathepsin D (Cat D) (Homo sapiens, UniProt P07339)          IC50                  =      17.7
17  Cc1cc(Cl)cnc1C(=O)Nc1ccc(F)c([C@@]2(C)N=C(N)[C@]3(C)CC[C@@]2(C)S3(=O)=O)c1 [Example 32]  Cathepsin D (Cat D) (Homo sapiens, UniProt P07339)          IC50                  =       131
18  Cc1cc(Cl)cnc1C(=O)Nc1ccc(F)c([C@@]2(C)N=C(N)[C@@H]3CC[C@H]2S3(=O)=O)c1 [Example 21]  Cathepsin D (Cat D) (Homo sapiens, UniProt P07339)          IC50                  =      1640
19  COc1cnc2c(Nc3ccc(F)c([C@@]4(C)N=C(N)[C@]5(C)CCC[C@H]4S5(=O)=O)c3)nccc2n1 [Example 2]  Cathepsin D (Cat D) (Homo sapiens, UniProt P07339)          IC50                  =       166
20  Cc1cc(Cl)cnc1C(=O)Nc1ccc(F)c([C@@]2(C)N=C(N)[C@@]3(C)CCC[C@@H]2S3(=O)=O)c1 [Example 3]  Cathepsin D (Cat D) (Homo sapiens, UniProt P07339)          IC50                  =       119
21  Cc1cc(OC(F)F)cnc1C(=O)Nc1ccc(F)c([C@@]2(C)N=C(N)[C@@]3(C)CC[C@@H]2S3(=O)=O)c1 [Example 23]  Cathepsin D (Cat D) (Homo sapiens, UniProt P07339)          IC50                  =       117
22  Cc1cc(OC(F)F)cnc1C(=O)Nc1ccc(F)c([C@@]2(C)N=C(N)[C@]3(C)CCC[C@@]2(F)S3(=O)=O)c1 [Example 10]  Cathepsin D (Cat D) (Homo sapiens, UniProt P07339)          IC50                  =      8.75
